Test system: DLD-1
Assay: Cytotoxicity against human DLD1 cells after 48 hrs by resazurin reduction test
Assay type: functional, cell-based
Conditions: DLD-1, 48 h
READOUT_KIND: IC50 (µM)
Give the value in µM but do not write µM after it.

Look up and state reported IC50 for "C=C(C)[C@@H]1CC[C@]2(C(=O)O)CC[C@]3(C)[C@H](CC[C@@H]4[C@@]5(C)CC[C@H](O[C@@H]6O[C@H](CO)[C@@H](O)[C@H](O)[C@H]6O)C(C)(C)[C@@H]5CC[C@]43C)[C@@H]12" 32

Answer with the recorded IC50 of C[C@@H]1O[C@@H](O[C@H]2[C@H](O[C@H]3CC[C@@]4(C)[C@@H](CC[C@]5(C)[C@@H]4CC=C4[C@@H]6CC(C)(C)CC[C@]6(C(=O)O)CC[C@]45C)[C@]3(C)CO)OC[C@H](O[C@@H]3O[C@H](CO)[C@@H](O)[C@H](O)[C@H]3O)[C@@H]2O)[C@H](O)[C@H](O)[C@H]1O [HEDERACOLCHISIDE A] only. 62

Look up and state reported IC50 for C[C@@H]1O[C@@H](O[C@H]2[C@H](O[C@H]3CC[C@@]4(C)[C@@H](CC[C@]5(C)[C@@H]4CC=C4[C@@H]6CC(C)(C)CC[C@]6(C(=O)O)CC[C@]45C)[C@]3(C)CO)OC[C@H](O)[C@@H]2O)[C@H](O)[C@H](O)[C@H]1O [ALPHA-HEDERIN] 60

# return recorded IC50 for input C[C@@H]1O[C@@H](O[C@H]2[C@H](O[C@H]3CC[C@]4(C)[C@H]5CC=C6[C@@H]7CC(C)(C)CC[C@]7(C(=O)O)CC[C@@]6(C)[C@]5(C)CC[C@H]4C3(C)C)OC[C@H](O[C@@H]3O[C@H](CO)[C@@H](O)[C@H](O)[C@H]3O)[C@@H]2O)[C@H](O)[C@H](O)[C@H]1O [HEDERACOLCHISIDE A1] 16

Item "CC1(C)CC[C@]2(C(=O)O)CC[C@]3(C)C(=CC[C@@H]4[C@@]5(C)CC[C@H](O[C@@H]6OC[C@H](O)[C@H](O)[C@H]6O)[C@@](C)(CO)[C@@H]5CC[C@]43C)[C@@H]2C1" : provide IC50 57

Recall and state the measured IC50 for "C=C(C)[C@@H]1CC[C@]2(C(=O)O)CC[C@]3(C)[C@H](CC[C@@H]4[C@@]5(C)CC[C@H](O[C@@H]6OC[C@H](O)[C@H](O)[C@H]6O)C(C)(C)[C@@H]5CC[C@]43C)[C@@H]12" . 11

Look up and state reported IC50 for "C[C@@H]1O[C@@H](O[C@H]2[C@H](O[C@H]3CC[C@]4(C)[C@H]5CC=C6[C@@H]7CC(C)(C)CC[C@]7(C(=O)O)CC[C@@]6(C)[C@]5(C)CC[C@H]4C3(C)C)OC[C@H](O)[C@@H]2O)[C@H](O)[C@H](O)[C@H]1O" 30

---

Assay: Toxicity in sheep erythrocytes assessed as induction of hemolysis
Type: cell-based, Ovis aries, Erythrocyte
Conditions: read-out: HD50 (the source's name)
READOUT_KIND: HC50

Determine from records and report HC50 for "C=C(C)[C@@H]1CC[C@]2(CO)CC[C@]3(C)[C@H](CC[C@@H]4[C@@]5(C)CC[C@H](O)C(C)(C)[C@@H]5CC[C@]43C)[C@@H]12" > 100 µM

For the compound "CC1(C)CC[C@]2(C(=O)O)CC[C@]3(C)C(=CC[C@@H]4[C@@]5(C)CC[C@H](O)C(C)(C)[C@@H]5CC[C@]43C)[C@@H]2C1" , report HC50. > 100 µM

Write down HC50 measured for item "C=C(C)[C@@H]1CC[C@]2(CO[C@@H]3O[C@H](CO)[C@@H](O)[C@H](O)[C@H]3O)CC[C@]3(C)[C@H](CC[C@@H]4[C@@]5(C)CC[C@H](O[C@@H]6O[C@H](CO)[C@@H](O)[C@H](O)[C@H]6O)C(C)(C)[C@@H]5CC[C@]43C)[C@@H]12" > 100 µM

Output HC50 of "C=C(C)[C@@H]1CC[C@]2(C(=O)O)CC[C@]3(C)[C@H](CC[C@@H]4[C@@]5(C)CC[C@H](O[C@@H]6OC[C@H](O)[C@H](O)[C@H]6O[C@@H]6O[C@@H](C)[C@H](O)[C@@H](O)[C@H]6O)C(C)(C)[C@@H]5CC[C@]43C)[C@@H]12" 78 µM
